# TEST TARGET: heteromeric KV7.2/KV7.3 channels (KCNQ2, KCNQ3) (Homo sapiens, UniProt O43525+O43526)
# EXPERIMENT DESCRIPTION: Automated patch-clamp (Sophion Qube 384) potency assay against KV7.2/KV7.3 channels
# TEST CONTEXT: CHO-K1/Kv7.2/Kv7.3 cells; EC50 from concentration-response of shift in Vhalf, 10 concentrations up to 30 μM; read-out: Kv7.2/7.3 EC50
pEC50: −log10 of the molar value.
OBSERVATION TYPE: pEC50

SMILES: COc1ccc([C@H](CF)NC(=O)NCc2ccnc(OCC(F)(F)F)c2)cc1
TEST TARGET: heteromeric KV7.2/KV7.3 channels (KCNQ2, KCNQ3) (Homo sapiens, UniProt O43525+O43526)
VALUE REPORTED: 5.38

1. O=C(NCCC1(C(F)(F)F)CC1)NCc1cc(OCC(F)(F)F)nc(N2CCOCC2)c1
2. O=C(NCCC1(C(F)(F)F)CC1)NCc1ccnc(OCc2ccc(F)cc2F)c1
3. O=C(NCc1ccc(OC(F)(F)F)cc1)NCc1ccnc(OCC(F)(F)F)c1
4. O=C(NCc1ccnc(OCC(F)(F)F)c1)N[C@@H]1C[C@@H]2CC[C@H]1O2
5. COc1ccc2c(c1)C[C@H](NC(=O)NCc1ccnc(OCC(F)(F)F)c1)CC2
Q) Put the compounds in ascending order of pEC50. Form entry: labels listed in requested order.
A) 4, 1, 3, 5, 2
(4: 4.93, 1: 5.29, 3: 5.50, 5: 6.09, 2: 6.40)

---

# TEST TARGET: heteromeric KV7.2/KV7.3 channels (KCNQ2, KCNQ3) (Homo sapiens, UniProt O43525+O43526)
# EXPERIMENT DESCRIPTION: Automated patch-clamp (Sophion Qube 384) potency assay against KV7.2/KV7.3 channels
# TEST CONTEXT: CHO-K1/Kv7.2/Kv7.3 cells; EC50 from concentration-response of shift in Vhalf, 10 concentrations up to 30 μM; read-out: Kv7.2/7.3 EC50
OBSERVATION TYPE: EC50 (nM)

Example compounds with recorded EC50:
COMPOUND: Cc1cccc2c1OCC[C@@H]2NC(=O)NCc1ccnc(OCC(F)(F)F)c1
TEST TARGET: heteromeric KV7.2/KV7.3 channels (KCNQ2, KCNQ3) (Homo sapiens, UniProt O43525+O43526)
OBSERVATION TYPE: EC50
VALUE REPORTED: 5390
//
COMPOUND: O=C(NCc1ccnc(OCC(F)(F)F)c1)N[C@H]1COC2(CC2)C1
TEST TARGET: heteromeric KV7.2/KV7.3 channels (KCNQ2, KCNQ3) (Homo sapiens, UniProt O43525+O43526)
OBSERVATION TYPE: EC50
VALUE REPORTED: 11700
//
COMPOUND: O=C(NCc1ccnc(OCC(F)(F)F)c1)NC1(C(F)(F)F)COC1
TEST TARGET: heteromeric KV7.2/KV7.3 channels (KCNQ2, KCNQ3) (Homo sapiens, UniProt O43525+O43526)
OBSERVATION TYPE: EC50
VALUE REPORTED: 8000
//
COMPOUND: O=C(NCc1ccnc(OCC(F)(F)F)c1)N[C@@H]1CCN(CC(F)(F)F)C1
TEST TARGET: heteromeric KV7.2/KV7.3 channels (KCNQ2, KCNQ3) (Homo sapiens, UniProt O43525+O43526)
OBSERVATION TYPE: EC50
VALUE REPORTED: 8950

A. O=C(NCc1ccnc(OCC(F)(F)F)n1)N[C@@H]1CCCc2ccccc21
B. O=C(NCc1ccnc(OCC(F)(F)F)c1)N[C@@H]1CCc2cc(F)c(F)cc21
C. CC(C)(C)[C@@H](O)CNC(=O)NCc1ccnc(OCCC(F)(F)F)c1
D. CC1(C)C[C@@H](NC(=O)NCc2ccnc(OCC(F)(F)F)c2)c2ccccc21
Q) Put the compounds in ascending order of EC50. Form entry: labels listed in requested order.
A) B, D, A, C

---

# TEST TARGET: heteromeric KV7.2/KV7.3 channels (KCNQ2, KCNQ3) (Homo sapiens, UniProt O43525+O43526)
# Construct: expressed in transfected cells; host or cells: CHO-K1
# EXPERIMENT DESCRIPTION: Automated patch-clamp (Sophion Qube 384) potency assay against KV7.2/KV7.3 channels
# Assay type: cell-based
# TEST CONTEXT: CHO-K1/Kv7.2/Kv7.3 cells; maximal shift in the Vhalf from the top of the curve
OBSERVATION TYPE: Kv7.2/7.3 ΔV1/2 (mV)

Example molecules with recorded Kv7.2/7.3 ΔV1/2:
MOLECULE: C[C@@H](Oc1nccc(CNC(=O)NCCC2(C(F)(F)F)CC2)n1)C(F)(F)F [Compound 93]
TEST TARGET: heteromeric KV7.2/KV7.3 channels (KCNQ2, KCNQ3) (Homo sapiens, UniProt O43525+O43526)
VALUE REPORTED: 34.16
//
MOLECULE: COc1ccc2c(c1)[C@H](NC(=O)NCc1cc(O[C@H](C)C(F)(F)F)ncn1)CCO2 [Compound 209]
TEST TARGET: heteromeric KV7.2/KV7.3 channels (KCNQ2, KCNQ3) (Homo sapiens, UniProt O43525+O43526)
VALUE REPORTED: 37.49
//
MOLECULE: O=C(NCc1ccnc(OCC(F)(F)F)c1)NCC1CCc2ccccc21 (stereo not drawn) [Compound 157]
TEST TARGET: heteromeric KV7.2/KV7.3 channels (KCNQ2, KCNQ3) (Homo sapiens, UniProt O43525+O43526)
VALUE REPORTED: 18.8
//
MOLECULE: COc1cc2c(cc1F)CCC2NC(=O)NCc1ccnc(OCC(F)(F)F)c1 (stereo not drawn) [Compound 125]
TEST TARGET: heteromeric KV7.2/KV7.3 channels (KCNQ2, KCNQ3) (Homo sapiens, UniProt O43525+O43526)
VALUE REPORTED: 18.25
//
MOLECULE: O=C(NCc1ccnc(OCC(F)(F)F)c1)N[C@H]1CN(CC(F)(F)F)C[C@@H]1c1ccccc1 [Compound 231]
TEST TARGET: heteromeric KV7.2/KV7.3 channels (KCNQ2, KCNQ3) (Homo sapiens, UniProt O43525+O43526)
VALUE REPORTED: 49.96

I. O=C(NCCC1(C(F)(F)F)CC1)NCc1ccnc(OCc2ccccc2F)c1 [Compound 19]
II. COCC1(NC(=O)NCc2ccnc(OCC(F)(F)F)c2)Cc2ccccc2C1 [Compound 148]
III. Cc1cccc2c1OCC[C@H]2NC(=O)NCc1ccnc(OCC(F)(F)F)c1 [Compound 184]
Q) Could you please sort these 3 entries by Kv7.2/7.3 ΔV1/2 from high to low? Form entry: labels listed in requested order.
A) III, I, II

---

# TEST TARGET: heteromeric KV7.2/KV7.3 channels (KCNQ2, KCNQ3) (Homo sapiens, UniProt O43525+O43526)
# Construct: expressed in transfected cells; host or cells: CHO-K1
# EXPERIMENT DESCRIPTION: Automated patch-clamp (Sophion Qube 384) potency assay against KV7.2/KV7.3 channels
# Assay type: cell-based
# TEST CONTEXT: CHO-K1/Kv7.2/Kv7.3 cells; maximal shift in the Vhalf from the top of the curve
OBSERVATION TYPE: Kv7.2/7.3 ΔV1/2 (mV)

Example compounds with recorded Kv7.2/7.3 ΔV1/2:
SMILES: O=C(NCc1ccnc(OCC(F)(F)F)c1)N[C@@H]1COc2c(F)cccc21
Kv7.2/7.3 ΔV1/2 / mV: 36.36

SMILES: O=C(NCc1ccnc(OCC(F)(F)F)c1)N[C@@H](C1CC1)C(F)(F)F
Kv7.2/7.3 ΔV1/2 / mV: 41.94

SMILES: COc1cccc(N2C[C@H](NC(=O)NCc3ccnc(OCC(F)(F)F)c3)C(F)(F)C2)c1
Kv7.2/7.3 ΔV1/2 / mV: 36.71

I. O=C(NCCC1(C(F)(F)F)CC1)NCc1ccnc(OCc2ccccn2)c1
II. O=C(NCc1ccnc(OCC(F)(F)F)c1)NC[C@H]1COc2ccccc2C1
Q) Which record would sort first by descending Kv7.2/7.3 ΔV1/2, I or II ? Answer with the label corresponding to your selection.
A) II
(II: 27.95 mV, I: 18.69 mV)

---

# TEST TARGET: heteromeric KV7.2/KV7.3 channels (KCNQ2, KCNQ3) (Homo sapiens, UniProt O43525+O43526)
# Construct: expressed in transfected cells; host or cells: CHO-K1
# EXPERIMENT DESCRIPTION: Automated patch-clamp (Sophion Qube 384) potency assay against KV7.2/KV7.3 channels
# Assay type: cell-based
# TEST CONTEXT: CHO-K1/Kv7.2/Kv7.3 cells; maximal shift in the Vhalf from the top of the curve
OBSERVATION TYPE: Kv7.2/7.3 ΔV1/2 (mV)

Example compounds with recorded Kv7.2/7.3 ΔV1/2:
COMPOUND: O=C(NCc1ccnc(OCC(F)(F)F)c1)N[C@@H]1COc2cc(OC(F)(F)F)ccc21
Kv7.2/7.3 ΔV1/2, mV: 26.44

COMPOUND: O=C(NCc1ccnc(OCc2ccccc2)c1)Nc1cccc(F)c1
Kv7.2/7.3 ΔV1/2, mV: 30.51

COMPOUND: CC(C)(CCNC(=O)NCc1ccnc(OCC(F)(F)F)c1)C(F)(F)F
Kv7.2/7.3 ΔV1/2, mV: 29.72

COMPOUND: O=C(NCc1ccnc(C(F)(F)F)c1)Nc1cc(F)cc(Cl)c1
Kv7.2/7.3 ΔV1/2, mV: 35.23

COMPOUND: O=C(NCCC1(C(F)(F)F)CC1)NCc1ccnc(OCCC(F)(F)F)c1
Kv7.2/7.3 ΔV1/2, mV: 26.68

1. CC(NC(=O)NCCC1(C(F)(F)F)CC1)c1ccnc(OCC(F)(F)F)n1 (centres unmarked)
2. O=C(NCc1ccnc(OCC(F)(F)F)c1)N[C@@H]1CCc2c(F)cc(F)cc21
Q) Lowest Kv7.2/7.3 ΔV1/2? choose 1 or 2 Answer with the label corresponding to your selection.
A) 1

a. CC(C)(C)[C@H](O)CNC(=O)NCc1ccnc(OCc2ccccc2)c1
b. O=C(NCc1ccnc(OCC(F)(F)F)c1)N[C@@H]1CCc2ccc(C(F)(F)F)cc21
c. COc1cccc2c1CCC[C@H]2NC(=O)NCc1ccnc(OCC(F)(F)F)c1
Q) Could you please sort these 3 entries by Kv7.2/7.3 ΔV1/2 from high to low? Form entry: labels listed in requested order.
A) c, a, b

a. O=C(NCCC1(C(F)(F)F)CC1)NCc1cccc(OCC(F)(F)F)n1
b. O=C(NCc1ccnc(OCC(F)(F)F)c1)N[C@@H]1CCc2cc(F)c(F)cc21
Q) Which record would sort first by descending Kv7.2/7.3 ΔV1/2, a or b ? Answer with the label corresponding to your selection.
A) b

1. COc1ccccc1N1CC[C@@H](NC(=O)NCc2ccnc(OCC(F)(F)F)c2)C1
2. Cc1cccc2c1[C@H](NC(=O)NCc1ccnc(OCC(F)(F)F)c1)CC2
Q) Lowest Kv7.2/7.3 ΔV1/2? choose 1 or 2 Answer with the label corresponding to your selection.
A) 1
